Source of measurements: patent US6376522B1

Tested on: Candida albicans ATCC 10231
// MIC lookup, one value per entry
Measure Name: MIC (µg/mL)

Oc1csnc1-c1ccccc1; 250
Oc1c(-c2ccccc2)nsc1-c1ccccc1; 50
O=C(c1ccc(F)cc1)c1snc(-c2ccc(F)cc2)c1O; 100
CCc1snc(-c2ccccc2)c1O; 500
Cc1snc(-c2ccccc2)c1O; 50
Oc1csnc1Cc1ccccc1; 500

---

Assay system Escherichia coli NCTC 8196; read-out recorded as MIC.
Measure Name: MIC (µg/mL)

Oc1csnc1Cc1ccccc1; 250
Oc1csnc1-c1ccccc1; 250
Cc1snc(-c2ccccc2)c1O; 50
CCc1snc(-c2ccccc2)c1O; 500
Oc1c(-c2ccccc2)nsc1-c1ccccc1; 5

---

Tested on: Aspergillus niger ATCC 6275
// MIC lookup, one value per entry
Measure Name: MIC (µg/mL)

Oc1c(-c2ccccc2)nsc1-c1ccccc1; 13
Oc1csnc1Cc1ccccc1; 500
Oc1csnc1-c1ccccc1; 100
Cc1snc(-c2ccccc2)c1O; 10
CCc1snc(-c2ccccc2)c1O; 100
